Tested on: K98450-129-R-PDC multicell spheroids, viability;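 further: spheroids exposed to agents for seven days before read-out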
Test: Anticancer human tumor K98450-129-R-PDC patient-derived colon adenocarcinoma cell line growth inhibition [PI3K]
Conditions: curve of first compound; second compound 1 µM
pIC50: −log10 of the molar value.
We begin with a simple list: items and their reported pIC50.

Example entries begin here.
Cn1ncnc1[C@H]1c2n[nH]c(=O)c3cc(F)cc(c23)N[C@@H]1c1ccc(F)cc1 + Cc1nc(NC(=O)N2CCCC2C(N)=O)sc1-c1ccnc(C(C)(C)C(F)(F)F)c1; < 7.00
CNC(=O)c1ccc(N2C(=S)N(c3ccc(C#N)c(C(F)(F)F)c3)C(=O)C2(C)C)cc1F + CC(Nc1ncnc2nc[nH]c12)c1cc2cccc(Cl)c2c(=O)n1-c1ccccc1; < 5.00

// next entry
Give the measured pIC50 of C[C@@H](NC(=O)c1ncnc(N)c1Cl)c1ncc(C(=O)Nc2cc(C(F)(F)F)c(Cl)cn2)s1 + CC(Nc1ncnc2nc[nH]c12)c1cc2cccc(Cl)c2c(=O)n1-c1ccccc1 . < 5.00
